Below are Ki measurements against 5-hydroxytryptamine receptor 1A (Homo sapiens, UniProt P08908) drawn from the literature.
Sequence (P08908 whole entry): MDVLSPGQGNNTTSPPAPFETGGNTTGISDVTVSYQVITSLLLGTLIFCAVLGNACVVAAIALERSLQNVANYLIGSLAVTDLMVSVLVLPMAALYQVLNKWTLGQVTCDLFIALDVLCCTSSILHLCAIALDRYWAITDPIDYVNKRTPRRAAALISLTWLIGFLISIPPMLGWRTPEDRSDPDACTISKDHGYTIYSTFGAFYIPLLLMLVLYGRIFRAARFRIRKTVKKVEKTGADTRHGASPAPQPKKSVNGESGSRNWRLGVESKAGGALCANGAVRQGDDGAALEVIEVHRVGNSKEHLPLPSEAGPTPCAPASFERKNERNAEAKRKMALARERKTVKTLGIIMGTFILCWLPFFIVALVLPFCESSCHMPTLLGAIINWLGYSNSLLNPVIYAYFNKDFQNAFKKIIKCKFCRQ
Assay readout: Ki (nM)

Compound	Units label	Ki
O=C1CCc2ccc(OCCCCN3CCN(c4cccc5c4CCC5)CC3)nc2N1	nM	6.3
O=C(CCCCCN1CCN(c2ccccc2-c2ccccc2)CC1)NCc1ccncc1	nM	70
Cc1ccc2c(OCCN3CCC(Cc4cccc(C5CCNCC5)c4)CC3)cccc2n1	nM	6.31
O=C1/C(=C/c2ccccc2N2CCNCC2)SCCN1c1ccc(F)cc1F	nM	4
O=C1NCc2ccc3c(c21)CC(N(CCCc1c[nH]c2ccc(F)cc12)CC1CC1)CO3 (stereo in doubt; (+)-46)	nM	3

I. O[C@@H](CNCC[C@H](Oc1ccc(C(F)(F)F)cc1)c1ccccc1)COc1cccc2[nH]ccc12
II. Cc1ccc(N2CCN(CC(O)CN3C(=O)NC(C)(c4ccc(F)cc4)C3=O)CC2)cc1C (stereo not given)
Of the two listed items, which has the higher Ki? First: I Second: II Answer by stating the label of the chosen item.
II
(II: 1000 nM, I: 7.8 nM)

P. CCCCCCCCC/C(O)=C/C(=O)/C=C/c1ccc(O)c(OC)c1
Q. COc1cc(CN2CCCCC2)ccc1OCCCN1CCC(c2noc3cc(F)ccc23)CC1
Of the two listed items, which has the higher Ki? First: P Second: Q Answer by stating the label of the chosen item.
P
(P: 3590 nM, Q: 67.7 nM)
